Source listed as patent US8889704B2.

# tested_target: GST-tagged recombinant full-length human Pim-2 (Homo sapiens)
# Construct: GST-tagged recombinant full-length human Pim-2; GST
# Sequence (Q9P1W9 whole entry): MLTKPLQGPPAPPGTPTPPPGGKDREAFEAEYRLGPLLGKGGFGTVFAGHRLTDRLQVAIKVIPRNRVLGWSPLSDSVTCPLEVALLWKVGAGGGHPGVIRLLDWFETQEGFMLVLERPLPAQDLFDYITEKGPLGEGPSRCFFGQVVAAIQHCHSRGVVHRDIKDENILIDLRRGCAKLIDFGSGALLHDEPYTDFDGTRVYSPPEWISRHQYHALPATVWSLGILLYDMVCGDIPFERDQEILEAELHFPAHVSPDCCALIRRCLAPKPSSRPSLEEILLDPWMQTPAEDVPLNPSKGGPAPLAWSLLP
# test_method_notes: PIM-2 Assay (as Example A)
# condition_set: averaged IC50; 4 μM ATP, 1.0 μM PIM2tide, 1.5 nM Pim-2
Structures can show the parent of a compound that is named as a salt.
Records here are stratified by IC50; strata: lower segment = under 0.07 µM, middle segment = from 0.07 µM up to 0.2 µM, upper segment = 0.2 µM and over

CCOc1cc2nc(-c3nnc4ccc([C@@H](N5C[C@@H](N)[C@H](OC)C5)C(F)(F)F)cn34)ccc2cc1F [Example 299, dihydrochloride] :: upper segment

(Q) # classify by IC50 band: N[C@H]1CCN([C@H](c2ccc3nnc(-c4ccc5cccc(O)c5n4)n3c2)C(F)(F)F)C1 [Example 208, dihydrochloride]
(A) upper segment

(Q) # classify by IC50 band: CCOc1cc2nc(-c3nnc4ccc([C@@H](N5CC[C@H](CN)C5)C(F)(F)F)cn34)ccc2cc1F [Example 280, hydrochloride]
(A) upper segment

(Q) # classify by IC50 band: COc1cc2nc(-c3nnc4ccc([C@@H](N5C[C@@H](N)[C@H](F)C5)C(F)(F)F)cn34)ccc2cc1F [Example 211, dihydrochloride]
(A) upper segment

(Q) # classify by IC50 band: CCOc1cc2nc(-c3nnc4ccc([C@H](N5CC[C@H](CN)C5)C(F)(F)F)cn34)ccc2cc1F [Example 296, hydrochloride]
(A) upper segment

(Q) # classify by IC50 band: CC(C)C(=O)Nc1ccc2ccc(-c3nnc4ccc(C(N5CC[C@H](N)C5)C(F)(F)F)cn34)nc2c1 (stereo partly shown) [Example 44]
(A) lower segment

(Q) # classify by IC50 band: COC[C@@H](C)Oc1cccc2ccc(-c3nnc4ccc(C(C)N5CC[C@H](N)C5)cn34)nc12 (stereo partly shown) [Example 33, trihydrochloride]
(A) upper segment

(Q) # classify by IC50 band: CC(C)(O)COc1cc2nc(-c3nnc4ccc([C@H](N5CC[C@](C)(N)C5)C(F)(F)F)cn34)ccc2cc1F [Example 301, dihydrochloride]
(A) lower segment

(Q) # classify by IC50 band: Cc1c(-c2cnn(C)c2C)ccc2ccc(-c3nnc4ccc([C@@H](N5CC[C@H](N)C5)C(F)(F)F)cn34)nc12 [Example 214, dihydrochloride]
(A) middle segment

(Q) # classify by IC50 band: CC1(COc2cccc3ccc(-c4nnc5ccc([C@@H](N6CC[C@H](N)C6)C(F)(F)F)cn45)nc23)COC1 [Example 192]
(A) middle segment

(Q) # classify by IC50 band: COCCOc1ccc2cc(F)c(-c3nnc4ccc(C(N5CC[C@](C)(N)C5)C(F)(F)F)cn34)nc2c1 (stereo in doubt) [Example 327]
(A) upper segment

(Q) # classify by IC50 band: C[C@]1(N)CCN([C@@H](c2ccc3nnc(-c4ccc5ccc(C6CC6)cc5n4)n3c2)C(F)(F)F)C1 [Example 223, dihydrochloride]
(A) lower segment

(Q) # classify by IC50 band: CC(C)(C)c1cccc2ccc(-c3nnc4ccc([C@@H](N5CC[C@](N)(CO)C5)C(F)(F)F)cn34)nc12 [Example 189, dihydrochloride]
(A) middle segment

---

So I've got pIC50 readings for UniProt:P11309, take a look.
Sequence (P11309 whole entry, species assumed): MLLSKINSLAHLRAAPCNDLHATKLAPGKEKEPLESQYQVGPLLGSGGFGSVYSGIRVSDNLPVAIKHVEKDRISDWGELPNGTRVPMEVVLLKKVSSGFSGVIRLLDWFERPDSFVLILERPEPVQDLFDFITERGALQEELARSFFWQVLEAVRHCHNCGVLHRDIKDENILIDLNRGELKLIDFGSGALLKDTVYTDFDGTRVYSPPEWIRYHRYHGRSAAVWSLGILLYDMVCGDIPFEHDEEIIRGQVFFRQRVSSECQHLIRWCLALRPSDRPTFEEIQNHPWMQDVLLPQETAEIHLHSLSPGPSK
Structures can show the parent of a compound that is named as a salt.
Would you please state pIC50, meaning minus log10 of the concentration in mol/L, as a bare number?

Guide cases for pIC50, answers given:
COC[C@@H](C)Oc1cccc2ccc(-c3nnc4ccc(C(C)N5CC[C@H](N)C5)cn34)nc12 (stereo partly drawn) [Example 33, trihydrochloride] :: 8.85
FC(F)(F)[C@@H](c1ccc2nnc(-c3ccc4ccc(Br)cc4n3)n2c1)N1C[C@@H]2C[C@H]1CN2 [Example 68, dihydrochloride] :: 8.39
N[C@H]1CCN([C@H](c2ccc3nnc(-c4ccc5cc(F)cc(C6(CO)CC6)c5n4)n3c2)C(F)(F)F)C1 [Example 125, dihydrochloride] :: 9.96

Bench note, UniProt:P11309: entry COc1cc(F)cc2ccc(-c3nnc4ccc([C@@H](N5CC[C@](C)(N)C5)C(F)(F)F)cn34)nc12 [Example 248, dihydrochloride] , its pIC50 = 8.93

Bench note, UniProt:P11309: entry CC(C)(C)c1cccc2ccc(-c3nnc4ccc([C@@H](N5CC[C@H](N)C5)C(F)(F)F)cn34)nc12 [Example 45, dihydrochloride] , its pIC50 = 9.68

Bench note, UniProt:P11309: entry CC1(N)CCN(C(c2ccc3nnc(-c4ccc5cccc(O)c5n4)n3c2)C(F)(F)F)C1 (stereo not drawn) [Example 28, dihydrochloride] , its pIC50 = 8.97

---

# tested_target: recombinant rat PIM-3 (Rattus norvegicus)
# test_method_notes: PIM-3 Assay (as Example A)
# condition_set: averaged IC50; 30 μM ATP, 3.75 μM PIM2tide, 0.5 nM PIM-3
pIC50: −log10 of the molar value. Counter-ions that a name gives are not always drawn.
Outcome label depends on pIC50 relative to 9: at/above gives 1, below gives 0.

CC(C)(CO)c1cc(F)cc2ccc(-c3nnc4ccc([C@@H](N5CC[C@H](N)C5)C(F)(F)F)cn34)nc12 [Example 121, dihydrochloride] :: 1

Below: the item to evaluate.
(Q) Could you verify whether the entry FC(F)(F)C(c1ccc2nnc(-c3ccc4cccc(OCC5CC5)c4n3)n2c1)N1C[C@H]2C[C@@H]1CN2 (stereo partly drawn) [Example 25, dihydrochloride] shows pIC50 of no less than 9?
(A) 0

---

# tested_target: GST-tagged recombinant full-length human Pim-2 (Homo sapiens)
# Construct: GST-tagged recombinant full-length human Pim-2; GST
# test_method_notes: PIM-2 Assay (as Example A)
# condition_set: averaged IC50; 4 μM ATP, 1.0 μM PIM2tide, 1.5 nM Pim-2
pIC50: −log10 of the molar value. Where a name gives a salt, the structure may show the parent alone.
Outcome label depends on pIC50 relative to 7: at/above gives met, below gives not met.

Sample answers from the record:
CCOc1cc2nc(-c3nnc4ccc([C@@H](N5CC[C@@](C)(N)C5)C(F)(F)F)cn34)ccc2cc1F [Example 293, hydrochloride] :: not met
CCOc1ccc2ccc(-c3nnc4ccc([C@@H](N5CCC6(CCCN6)C5)C(F)(F)F)cn34)nc2c1 (stereo partly drawn) [Example 257, dihydrochloride] :: not met
CC(C)(O)COc1cc(F)cc2ccc(-c3nnc4ccc([C@@H](N5CC[C@H](N)C5)C(F)(F)F)cn34)nc12 :: met

Below: the item to evaluate.
(Q) Could you verify whether the entry CC(C)Oc1cc(F)cc2ccc(-c3nnc4ccc([C@@H](N5C[C@@H](N)[C@H](O)C5)C(F)(F)F)cn34)nc12 [Example 147, dihydrochloride] shows pIC50 of no less than 7?
(A) met

---

# tested_target: recombinant rat PIM-3 (Rattus norvegicus)
# test_method_notes: PIM-3 Assay (as Example A)
# condition_set: averaged IC50; 30 μM ATP, 3.75 μM PIM2tide, 0.5 nM PIM-3
pIC50: −log10 of the molar value. Where a name gives a salt, the structure may show the parent alone.
Outcome label depends on pIC50 relative to 9: at/above gives yes (1), below gives no (0).

CC(C)Oc1cccc2ccc(-c3nnc4ccc([C@@H](N5C[C@@H](N)[C@H](O)C5)C(F)(F)F)cn34)nc12 [Example 146, dihydrochloride] :: yes (1)
CCOc1ccc2ccc(-c3nnc4ccc([C@@H](N5CCC6(CCCN6)C5)C(F)(F)F)cn34)nc2c1 (stereo partly shown) [Example 257, dihydrochloride] :: no (0)
CC(C)Oc1cccc2ccc(-c3nnc4ccc([C@@H](N5CC[C@H](N)C5)C(F)(F)F)cn34)nc12 [Example 31, dihydrochloride] :: yes (1)
CC(C)Oc1c(F)ccc2ccc(-c3nnc4ccc([C@@H](N5CC[C@H](N)C5)C(F)(F)F)cn34)nc12 [Example 109, hydrochloride] :: no (0)
CC1(N)CCN(C(c2ccc3nnc(-c4ccc5cccc(O)c5n4)n3c2)C(F)(F)F)C1 (stereo not shown) [Example 28, dihydrochloride] :: no (0)
COc1cccc2ccc(-c3nnc4ccc([C@H](N5CC[C@](C)(N)C5)C(F)(F)F)cn34)nc12 [Example 217, dihydrochloride] :: yes (1)
CC(=O)N[C@H]1CCN(C(c2ccc3nnc(-c4ccc5cccc(OCC6CC6)c5n4)n3c2)C(F)(F)F)C1 (stereo partly shown) :: no (0)

Below: the item to evaluate.
(Q) Could you verify whether the entry CC(C)C(=O)Nc1ccc2ccc(-c3nnc4ccc([C@@H](N5CC[C@H](O)C5)C(F)(F)F)cn34)nc2c1 shows pIC50 of no less than 9?
(A) no (0)

---

Catalogue of IC50 readings, one per entry.
# tested_target: recombinant rat PIM-3 (Rattus norvegicus)
# test_method_notes: PIM-3 Assay (as Example A)
# condition_set: averaged IC50; 30 μM ATP, 3.75 μM PIM2tide, 0.5 nM PIM-3
Counter-ions that a name gives are not always drawn.
Numeric only. Scale: nM

Guide cases for IC50, answers given:
CCOc1cc2nc(-c3nnc4ccc([C@H](N5CC[C@@H](N)C5)C(F)(F)F)cn34)ccc2cc1F [Example 292, hydrochloride] :: 1.1
CC(C)Oc1cc(F)cc2ccc(-c3nnc4ccc([C@@H](N5CC[C@H](NCCO)C5)C(F)(F)F)cn34)nc12 [Example 102, dihydrochloride] :: 0.7

Next:
Looking up NC[C@@H]1CCN(C(c2ccc3nnc(-c4ccc5cccc(OCC6CC6)c5n4)n3c2)C(F)(F)F)C1 (stereo partly drawn) [Example 24, dihydrochloride] , I see its IC50 listed as 76
